species: Rattus norvegicus; assay: Open TG-GATES - Regimen: Single; type: toxicity, organism-based, Sprague-Dawley; parameters: regimen Single, gender Male, age 6 weeks; settings: in vivo, po, 300 mg/kg, 3 h, tissue Kidney, route gavage, dose level Middle
METRIC: KIDNEY_L (g)
Report the figure in g without appending any unit label.

Some compounds with known KIDNEY_L results, for comparison:
Clc1ccccc1CN1CCc2sccc2C1 [TICLOPIDINE]    0.9
C[C@H](CS)C(=O)N1CCC[C@H]1C(=O)O [CAPTOPRIL]    1
CCc1cc(C(N)=S)ccn1 [ETHIONAMIDE]    1
O=C(O)c1cc(/N=N/c2ccc(S(=O)(=O)Nc3ccccn3)cc2)ccc1O [SULFASALAZINE]    1

Let us move to another entry and its KIDNEY_L.
// KIDNEY_L value for O=C(O)c1cn(C2CC2)c2cc(N3CCNCC3)c(F)cc2c1=O [CIPROFLOXACIN] : 0.8

// provenance: ChEMBL document CHEMBL3885861
